Measured MIC of individual entries
- System: Mycobacterium tuberculosis
- TEST: Antitubercular activity against multidrug-resistant Mycobacterium tuberculosis clinical isolate 16,030
- Type: functional
MEASURE_NAME: MIC

INSERT INTO measurements (record_smiles, assay_target, measure_name, measured_result) VALUES
  ('CN(CC#Cc1cscn1)c1nc(=O)c2cc(C(F)(F)F)cc([N+](=O)[O-])c2s1', 'Mycobacterium tuberculosis', 'MIC', '< 0.016 µg/mL'),
  ('CO[C@H]1/C=C/O[C@@]2(C)Oc3c(C)c(O)c4c(O)c(c(/C=N/N5CCN(C)CC5)c(O)c4c3C2=O)NC(=O)/C(C)=C\C=C\[C@H](C)[C@H](O)[C@@H](C)[C@@H](O)[C@@H](C)[C@H](OC(C)=O)[C@@H]1C', 'Mycobacterium tuberculosis', 'MIC', '> 10 µg/mL'),
  ('CN(CC#Cc1ccccc1)c1nc(=O)c2cc(C(F)(F)F)cc([N+](=O)[O-])c2s1', 'Mycobacterium tuberculosis', 'MIC', '< 0.016 µg/mL'),
  ('NNC(=O)c1ccncc1', 'Mycobacterium tuberculosis', 'MIC', '> 10 µg/mL'),
  ('CN(CC#CC1CCCCC1)c1nc(=O)c2cc(C(F)(F)F)cc([N+](=O)[O-])c2s1', 'Mycobacterium tuberculosis', 'MIC', '< 0.016 µg/mL');
